- Measured On: recombinant PI3K δ enzyme (Homo sapiens (Human))
- Sequence (O00329 whole entry, species assumed): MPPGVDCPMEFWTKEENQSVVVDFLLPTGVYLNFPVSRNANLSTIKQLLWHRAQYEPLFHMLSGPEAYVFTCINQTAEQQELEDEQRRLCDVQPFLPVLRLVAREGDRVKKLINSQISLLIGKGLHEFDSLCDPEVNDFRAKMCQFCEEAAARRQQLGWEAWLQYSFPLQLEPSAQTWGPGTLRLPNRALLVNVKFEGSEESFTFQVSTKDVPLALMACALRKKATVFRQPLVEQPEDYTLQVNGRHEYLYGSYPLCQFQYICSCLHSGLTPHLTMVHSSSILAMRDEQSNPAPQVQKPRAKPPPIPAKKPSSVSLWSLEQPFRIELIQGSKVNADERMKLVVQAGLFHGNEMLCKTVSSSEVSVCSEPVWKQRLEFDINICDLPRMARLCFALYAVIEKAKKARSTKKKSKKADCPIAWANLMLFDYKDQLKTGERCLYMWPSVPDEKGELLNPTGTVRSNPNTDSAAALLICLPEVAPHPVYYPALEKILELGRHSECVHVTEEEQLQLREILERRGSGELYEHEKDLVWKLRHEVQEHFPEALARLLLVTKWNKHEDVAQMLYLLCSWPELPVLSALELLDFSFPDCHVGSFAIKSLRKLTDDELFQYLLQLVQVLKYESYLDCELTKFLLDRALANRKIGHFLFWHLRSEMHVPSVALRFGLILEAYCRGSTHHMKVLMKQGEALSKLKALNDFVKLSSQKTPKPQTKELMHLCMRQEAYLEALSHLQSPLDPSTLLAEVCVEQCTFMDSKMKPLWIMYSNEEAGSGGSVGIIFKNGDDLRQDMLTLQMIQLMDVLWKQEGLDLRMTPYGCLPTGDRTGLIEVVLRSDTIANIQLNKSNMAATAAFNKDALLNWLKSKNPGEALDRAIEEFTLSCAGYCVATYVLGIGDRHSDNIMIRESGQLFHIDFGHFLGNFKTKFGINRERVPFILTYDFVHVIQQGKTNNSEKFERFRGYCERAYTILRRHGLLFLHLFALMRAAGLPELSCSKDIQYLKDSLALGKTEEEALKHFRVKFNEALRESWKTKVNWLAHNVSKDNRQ
- Sequence (P27986 whole entry partner, species assumed): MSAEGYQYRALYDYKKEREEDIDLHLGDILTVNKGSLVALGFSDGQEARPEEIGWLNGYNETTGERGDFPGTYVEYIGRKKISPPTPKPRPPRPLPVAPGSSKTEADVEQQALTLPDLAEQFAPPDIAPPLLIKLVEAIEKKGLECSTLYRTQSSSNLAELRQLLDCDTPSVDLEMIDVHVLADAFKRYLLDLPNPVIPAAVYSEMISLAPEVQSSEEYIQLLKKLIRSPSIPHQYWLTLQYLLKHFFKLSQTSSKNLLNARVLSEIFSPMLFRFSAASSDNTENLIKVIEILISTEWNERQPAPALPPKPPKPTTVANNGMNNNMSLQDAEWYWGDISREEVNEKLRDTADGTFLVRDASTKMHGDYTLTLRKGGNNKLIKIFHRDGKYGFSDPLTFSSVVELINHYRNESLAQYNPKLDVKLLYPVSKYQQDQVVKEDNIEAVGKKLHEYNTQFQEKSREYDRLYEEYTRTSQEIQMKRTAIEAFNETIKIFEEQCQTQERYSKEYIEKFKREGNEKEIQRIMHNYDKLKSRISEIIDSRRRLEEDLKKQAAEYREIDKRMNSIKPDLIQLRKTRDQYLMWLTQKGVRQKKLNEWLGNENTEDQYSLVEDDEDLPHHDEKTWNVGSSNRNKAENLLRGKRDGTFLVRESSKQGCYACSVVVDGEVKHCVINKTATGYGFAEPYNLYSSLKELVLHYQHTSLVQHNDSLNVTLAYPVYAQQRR
- Method Description: In vitro enzyme assay (Kinase-Glo luminescent kinase assay), PI3Kδ
- Type: biochemical
Test Readout: IC50 (nM)

{"columns": ["Structure Smiles", "Result Units", "IC50"],
 "data": [
  ["Cn1cc(-c2nc(N3CCOCC3)c3nc(C(=O)N4CCN(c5ccccc5)CC4)[nH]c3n2)cn1", "nM", 56]
]}

[I] CN(C(=O)c1nc2c(N3CCOCC3)cc(-c3cnn(C)c3)nc2[nH]1)C1CCN(C2CCOCC2)CC1
[II] Cc1nn(C)cc1-c1nc2[nH]c(C(=O)N3CCC(N4CCOCC4)CC3)nc2c(N2CCOCC2)c1F
Select one. Lower IC50: I or II Your answer should be the label of the entry you select.
II

Each recorded value in this set is attributed to patent US10174035B2.
